Where do the numbers come from? From patent US20230330254A1.

- Tested Target: human GLP1R (Homo sapiens, UniProt P43220)
- Sequence (P43220 24-463): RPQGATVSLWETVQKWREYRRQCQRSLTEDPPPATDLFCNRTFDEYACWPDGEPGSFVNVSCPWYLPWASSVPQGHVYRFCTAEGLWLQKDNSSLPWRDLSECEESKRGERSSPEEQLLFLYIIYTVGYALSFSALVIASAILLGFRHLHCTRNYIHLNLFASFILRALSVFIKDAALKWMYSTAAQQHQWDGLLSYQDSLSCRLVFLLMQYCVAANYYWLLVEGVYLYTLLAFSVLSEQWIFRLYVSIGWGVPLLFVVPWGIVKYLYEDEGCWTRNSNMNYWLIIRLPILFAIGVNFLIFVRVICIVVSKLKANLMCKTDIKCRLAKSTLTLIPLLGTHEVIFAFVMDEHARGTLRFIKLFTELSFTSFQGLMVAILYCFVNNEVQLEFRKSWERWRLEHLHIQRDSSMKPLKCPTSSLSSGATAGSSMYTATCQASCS
- Measurement Notes: Luciferase reporter assay, HEK293/CRE-Luc/hGLP1R (Example 17)
- Type: cell-based
- Parameters: engineered to express full-length human GLP1R, cynomolgus GLP1R; expressed in transfected cells; host or cells: HEK293/CRE-Luc
- Run Conditions: HEK293/CRE-Luc/hGLP1R; payloads and linker-payloads; experiments A-E, M2361 repeated in each; read-out: EC50
Where a SMILES comes first, the peptide text is derived from it. [ ]: non-standard residue; d: D form. The star is where a group is joined. Bip(2'-Et,4'-O(CH2)4NH2) = CCc1cc(OCCCCN)ccc1-c1ccc(C[C@H](N)C(=O)O)cc1; Malonyl(2,2-Me2,histaminyl) = CC(C)(C(=O)NCCc1cnc[nH]1)C(=O)*; Nva(5-(3,5-Me2Ph)) = Cc1cc(C)cc(CCC[C@H](N)C(=O)O)c1; Ala(1H-tetrazol-5-yl) = N[C@@H](Cc1nnn[nH]1)C(=O)O; αMePhe(2-F) = C[C@](N)(Cc1ccccc1F)C(=O)O; X8 = O=C([C@H]1CCN(CCc2cnc[nH]2)C1)*; X1 = O=C(CCCCCc1cnc[nH]1)*; NHPh = c1ccc(N*)cc1
Quantity Name: EC50 (nM)
Please state the figure in nM; there is no need to write the unit.

1. CCc1cc(OCCCCN)ccc1-c1ccc(C[C@H](NC(=O)[C@H](CC(=O)O)NC(=O)[C@H](CO)NC(=O)[C@@H](NC(=O)[C@](C)(Cc2ccccc2F)NC(=O)[C@@H](NC(=O)CNC(=O)[C@H](Cc2nn[nH]n2)NC(=O)C(C)(C)C(=O)NCCc2cnc[nH]2)[C@@H](C)O)[C@@H](C)O)C(=O)N[C@@H](CCCc2cc(C)cc(C)c2)C(=O)Nc2ccccc2)cc1 [P23] ({Malonyl(2,2-Me2,histaminyl)}-[Ala(1H-tetrazol-5-yl)]GT[αMePhe(2-F)]TSD[Bip(2'-Et,4'-O(CH2)4NH2)][Nva(5-(3,5-Me2Ph))]-NHPh); 0.00515
2. CCc1cc(OCCCCN)ccc1-c1ccc(C[C@H](NC(=O)[C@H](CC(=O)O)NC(=O)[C@H](CO)NC(=O)[C@@H](NC(=O)[C@](C)(Cc2ccccc2F)NC(=O)[C@@H](NC(=O)CNC(=O)[C@H](Cc2nn[nH]n2)NC(=O)[C@H]2CCN(CCc3cnc[nH]3)C2)[C@@H](C)O)[C@@H](C)O)C(=O)N[C@@H](CCCc2cc(C)cc(C)c2)C(N)=O)cc1 [P16] (X8-[Ala(1H-tetrazol-5-yl)]GT[αMePhe(2-F)]TSD[Bip(2'-Et,4'-O(CH2)4NH2)][Nva(5-(3,5-Me2Ph))]-NH2); 0.217
3. CCc1cc(OCCCCNC(=O)[C@H](CO)NC(=O)CNC(=O)CNC(=O)CNC(=O)CNC(=O)CCC(=O)N2Cc3ccccc3C#Cc3ccccc32)ccc1-c1ccc(C[C@H](NC(=O)[C@H](CC(=O)O)NC(=O)[C@H](CO)NC(=O)[C@@H](NC(=O)[C@](C)(Cc2ccccc2F)NC(=O)[C@@H](NC(=O)CNC(=O)[C@H](Cc2nn[nH]n2)NC(=O)C(C)(C)C(=O)NCCc2cnc[nH]2)[C@@H](C)O)[C@@H](C)O)C(=O)N[C@@H](CCCc2cc(C)cc(C)c2)C(=O)Nc2ccccc2)cc1; 0.0704

Query compound follows.
Asked: Need EC50, item CCc1cc(OCCCCN)ccc1-c1ccc(C[C@H](NC(=O)[C@H](CC(=O)O)NC(=O)[C@H](CO)NC(=O)[C@@H](NC(=O)[C@](C)(Cc2ccccc2F)NC(=O)[C@@H](NC(=O)CNC(=O)[C@H](Cc2nn[nH]n2)NC(=O)CCCCCc2cnc[nH]2)[C@@H](C)O)[C@@H](C)O)C(=O)N[C@@H](CCCc2cc(C)cc(C)c2)C(N)=O)cc1 [P11] (X1-[Ala(1H-tetrazol-5-yl)]GT[αMePhe(2-F)]TSD[Bip(2'-Et,4'-O(CH2)4NH2)][Nva(5-(3,5-Me2Ph))]-NH2)
Given back: 0.685

* * *

- Tested Target: UniProt P43220
- Measurement Notes: Human GLP1R cAMP accumulation assay
- Format: cell-based
- Set-up: HEK293 cells over-expressing full length human GLP-1R were utilized; expressed in transfected cells; host or cells: HEK293 (HEK293/hGLP1R)
- Run Conditions: HEK293/hGLP1R cells; Table 4; read-out: cAMP EC50
Catalogue of compounds with associated EC50
Please state the figure in nM; there is no need to write the unit.

# count of solved cases: 2
1. CCc1cc(OCCCCN)ccc1-c1ccc(C[C@H](NC(=O)[C@H](CC(=O)O)NC(=O)[C@H](CO)NC(=O)[C@@H](NC(=O)[C@](C)(Cc2ccccc2F)NC(=O)[C@@H](NC(=O)CNC(=O)[C@H](Cc2nn[nH]n2)NC(=O)[C@]2(C)CCN(CCc3cnc[nH]3)C2=O)[C@@H](C)O)[C@@H](C)O)C(=O)N[C@@H](CCCc2cc(C)cc(C)c2)C(N)=O)cc1; 0.727
2. CCc1cc(OCCCCNC(=O)[C@H](CO)NC(=O)CNC(=O)CNC(=O)CNC(=O)CNC(=O)CCC(=O)N2Cc3ccccc3C#Cc3ccccc32)ccc1-c1ccc(C[C@H](NC(=O)[C@H](CC(=O)O)NC(=O)[C@H](CO)NC(=O)[C@@H](NC(=O)[C@](C)(Cc2ccccc2F)NC(=O)[C@@H](NC(=O)CNC(=O)[C@H](Cc2nn[nH]n2)NC(=O)C(C)(C)C(=O)NCCc2cnc[nH]2)[C@@H](C)O)[C@@H](C)O)C(=O)N[C@@H](CCCc2cc(C)cc(C)c2)C(N)=O)cc1; 0.436

Asked: Need EC50, item `CCc1cc(OCCCCNC(=O)CNC(=O)CNC(=O)CNC(=O)CNC(=O)[C@H](CO)NC(=O)CCC(=O)N2Cc3ccccc3C#Cc3ccccc32)ccc1-c1ccc(C[C@H](NC(=O)[C@H](CC(=O)O)NC(=O)[C@H](CO)NC(=O)[C@@H](NC(=O)[C@](C)(Cc2ccccc2F)NC(=O)[C@@H](NC(=O)CNC(=O)[C@H](Cc2nn[nH]n2)NC(=O)C(C)(C)C(=O)NCCc2cnc[nH]2)[C@@H](C)O)[C@@H](C)O)C(=O)N[C@@H](CCCc2cc(C)cc(C)c2)C(=O)Nc2ccccc2)cc1`
Given back: 1.04

* * *

- Tested Target: human GLP1R (Homo sapiens, UniProt P43220)
- Measurement Notes: Human GLP1R cAMP accumulation assay
- Type: cell-based
- Set-up: HEK293 cells over-expressing full length human GLP-1R were utilized; expressed in transfected cells; host or cells: HEK293 (HEK293/hGLP1R)
- Run Conditions: HEK293/hGLP1R cells; Table 4; read-out: cAMP EC50
- Procedure: 8.1 Human GLP1R cAMP Accumulation Assay (Cyclic AMP Determination) The functional activity of the test compounds for agonizing GLP1R were evaluated using a cell-based assay. For the assay, HEK293 cells over-expressing full length human GLP-1R were utilized and the downstream cAMP accumulation was assessed as a measure of human GLP-1R stimulation. […] The levels of cAMP per well were calculated using a standard curve generated by GraphPad Prism. […]
Where a SMILES comes first, the peptide text is derived from it. [ ]: non-standard residue; d: D form. The star is where a group is joined. Bip(2'-Et,4'-O(CH2)4NH2) = CCc1cc(OCCCCN)ccc1-c1ccc(C[C@H](N)C(=O)O)cc1; Malonyl(2,2-Me2,histaminyl) = CC(C)(C(=O)NCCc1cnc[nH]1)C(=O)*; Nva(5-(3,5-Me2Ph)) = Cc1cc(C)cc(CCC[C@H](N)C(=O)O)c1; Ala(1H-tetrazol-5-yl) = N[C@@H](Cc1nnn[nH]1)C(=O)O; αMePhe(2-F) = C[C@](N)(Cc1ccccc1F)C(=O)O; NHPh = c1ccc(N*)cc1
Quantity Name: EC50

Asked: Provide value of EC50 for this record tested with human GLP1R (Homo sapiens, UniProt P43220): CCc1cc(OCCCCN)ccc1-c1ccc(C[C@H](NC(=O)[C@H](CC(=O)O)NC(=O)[C@H](CO)NC(=O)[C@@H](NC(=O)[C@](C)(Cc2ccccc2F)NC(=O)[C@@H](NC(=O)CNC(=O)[C@H](Cc2nn[nH]n2)NC(=O)C(C)(C)C(=O)NCCc2cnc[nH]2)[C@@H](C)O)[C@@H](C)O)C(=O)N[C@@H](CCCc2cc(C)cc(C)c2)C(=O)Nc2ccccc2)cc1 [P23] ({Malonyl(2,2-Me2,histaminyl)}-[Ala(1H-tetrazol-5-yl)]GT[αMePhe(2-F)]TSD[Bip(2'-Et,4'-O(CH2)4NH2)][Nva(5-(3,5-Me2Ph))]-NHPh)
Given back: 198 pM
